Target: ScLsb1
Test: SPOT peptide array binding signal intensity (averaged, normalized) (arbitrary units (background-subtracted, floor 0; scale differs between SH3 domains)); higher = stronger binding of the SH3 domain to the peptide
Recorded SPOT peptide array binding signal intensity by entry
measurement.name: SPOT peptide array binding signal intensity

binder	qual	recorded.value
AIPPPVPNRPGGTTN	=	1120
VPPVPLPFGIPPFPM	=	0.75
PKRRAPPPVPKKPSS	=	488
RKLRTVPGVPLIHLT	=	1.5
SHRLWLYAAPKRPKT	=	0.5
NTMKKRPAPPSLPSL	=	29.5
RKRAPTPPAPSRSEK	=	89.5
DHPKGPPPPPPPDEK	=	1
VPVAPPPPPASLGQS	≤	0
RLSFFFPLDPAYIRN	=	0.5
LYKRKPILLPDPKPL	=	162
IVNKPLPPLPVAGSS	≤	0
STKKPRPPVKSKPKH	=	0.5
QLLNPNRRAPRRPLS	=	37.2
AGKRRLPLVRFKASD	=	4.5
NLPKRKPPKLQGPFS	=	0.5
DRIRMFIRFPKFLLE	≤	0
RMVRRRPLRVQFSAR	=	23.2
RRARRQMGIPTISQV	=	72.5
KRRAPPPVPKKPSSR	=	517
TIRRRAPLSLLESHT	=	2
RNNRPVPPPPPMRTT	=	27
TSFKGRPKPPKTLKH	=	4.75
QRIRKIPGIPLMSVG	=	9.25
KTITLEVESSDTIDN	≤	0
ISRRRLPVIMHRLKM	=	32.5
IHTRRPSSTSQYLIR	=	3
QRKSLRRPTLSKPAV	=	4
STPQTMRQAPKRPDA	=	5.5
GLRRARYKFPGQQKI	=	8.25
